All values here come from ChEMBL document CHEMBL3875165.

TEST DESCRIPTION: Protein binding in ICR mouse plasma after 30 mins by ultra-filtration method
Assay type: ADME, cell-free
MEASUREMENT PARAMETERS: read-out: PPB (converted)
ENDPOINT NAME: fraction unbound at 0.5 h
Answers are plain numbers.

Below: 2 molecules and their reported fraction unbound at 0.5 h.
CCO/N=C(\C(=O)N[C@@H]1C(=O)N2C(C(=O)[O-])=C(C[n+]3ccc(-c4cc(/C([O-])=N/C#N)[nH]n4)cc3)CS[C@H]12)c1csc(N)n1.[Na+] (stereo in doubt): 0.77
CCO/N=C(\C(=O)N[C@@H]1C(=O)N2C(C(=O)[O-])=C(/C=C/C[n+]3cccc4cc(/C([O-])=N/C#N)[nH]c43)CS[C@H]12)c1csc(N)n1.[Na+]: 0.67

I would be grateful if you could provide fraction unbound at 0.5 h for each of the following entries.
1. CCO/N=C(\C(=O)N[C@@H]1C(=O)N2C(C(=O)[O-])=C(/C=C/C[n+]3ccc4c(/C([O-])=N\C#N)cccc4c3)CS[C@H]12)c1csc(N)n1.[Na+]
2. CCO/N=C(\C(=O)N[C@@H]1C(=O)N2C(C(=O)[O-])=C(/C=C/C[n+]3ccc(-c4nc(/C([O-])=N/C#N)cs4)cc3)CS[C@H]12)c1csc(N)n1.[Na+]
3. CCO/N=C(\C(=O)N[C@@H]1C(=O)N2C(C(=O)[O-])=C(/C=C/C[n+]3ccc(-c4c[nH]c(/C([O-])=N/C#N)c4)cc3)CS[C@H]12)c1csc(N)n1.[Na+]

RESULT:
[0.97, 0.81, 0.75]

###

Test system: Escherichia coli
TEST DESCRIPTION: Antibacterial activity against Escherichia coli NIHJ JC-2 after 20 hrs by agar dilution method
Assay type: functional
MEASUREMENT PARAMETERS: NIHJ JC-2, 20 h
Assign MIC to each entry below.
Write down the value, and be sure its unit follows.

As a guide, the following entries are already answered.
CCO/N=C(\C(=O)N[C@@H]1C(=O)N2C(C(=O)[O-])=C(/C=C\C[n+]3ccc(-c4cc(/C([O-])=N/C#N)[nH]n4)cc3)CS[C@H]12)c1csc(N)n1.[Na+]: 0.125 µg/mL
CCO/N=C(\C(=O)N[C@@H]1C(=O)N2C(C(=O)[O-])=C(/C=C/C[n+]3ccc(-c4nc(/C([O-])=N/C#N)cs4)cc3)CS[C@H]12)c1csc(N)n1.[Na+]: 0.063 µg/mL
CCO/N=C(\C(=O)N[C@@H]1C(=O)N2C(C(=O)[O-])=C(/C=C/C[n+]3cccc4[nH]c(/C([O-])=N/C#N)cc43)CS[C@H]12)c1csc(N)n1.[Na+]: 0.125 µg/mL

Quick one: give me MIC for each item below, same order please.
1. CCO/N=C(\C(=O)N[C@@H]1C(=O)N2C(C(=O)[O-])=C(/C=C/C[n+]3cccc(/C([O-])=N/C#N)c3)CS[C@H]12)c1csc(N)n1.[Na+]
2. CCO/N=C(\C(=O)N[C@@H]1C(=O)N2C(C(=O)[O-])=C(/C=C/C[n+]3ccc(/C([O-])=N/C#N)cc3)CS[C@H]12)c1csc(N)n1.[Na+]
3. CCO/N=C(\C(=O)N[C@@H]1C(=O)N2C(C(=O)[O-])=C(/C=C/C[n+]3ccc4sc(/C([O-])=N/C#N)nc4c3)CS[C@H]12)c1csc(N)n1.[Na+]

RESULT:
0.125 µg/mL
0.25 µg/mL
0.25 µg/mL

Please look at the items below and tell me MIC for each one, in order.
1. CCO/N=C(\C(=O)N[C@@H]1C(=O)N2C(C(=O)[O-])=C(/C=C/C[n+]3ccc(-c4c[nH]c(/C([O-])=N/C#N)c4C)cc3)CS[C@H]12)c1csc(N)n1.[Na+]
2. CCO/N=C(\C(=O)N[C@@H]1C(=O)N2C(C(=O)[O-])=C(/C=C/C[n+]3ccc(-c4cc(/C([O-])=N/C#N)[nH]n4)cc3)CS[C@H]12)c1csc(N)n1.[Na+]
3. CCO/N=C(\C(=O)N[C@@H]1C(=O)N2C(C(=O)[O-])=C(/C=C/C[n+]3ccc(-c4csc(/C([O-])=N/C#N)n4)cc3)CS[C@H]12)c1csc(N)n1.[Na+]
4. CCO/N=C(\C(=O)N[C@@H]1C(=O)N2C(C(=O)[O-])=C(/C=C/C[n+]3ccc(-n4ccc(/C([O-])=N/C#N)n4)cc3)CS[C@H]12)c1csc(N)n1.[Na+]
5. CCO/N=C(\C(=O)N[C@@H]1C(=O)N2C(C(=O)[O-])=C(C=CC[n+]3ccc(-c4cc(/C([O-])=N/C#N)[nH]n4)cc3)CS[C@H]12)c1csc(N)n1.[Na+]

RESULT:
1. 0.125 µg/mL
2. 0.125 µg/mL
3. 0.125 µg/mL
4. 0.125 µg/mL
5. 0.125 µg/mL
